target: E3 ubiquitin-protein ligase XIAP (Homo sapiens); assay: XIAP binders, primary screen, biophysical, small-molecule microarray, fluorescence 635 nm (AID 1181); conditions: small-molecule microarray binding, higher = more signal;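 further: score merges 667 nm emission and signal to noise over triplicate slides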
Please respond with reported composite z-score for every item in the list.
One number for each entry.

CC(=O)Nc1ccc([C@@H]2N[C@H](C(=O)O)CC[C@H]2C)cc1 :: -0.0445
CO[C@H]1COC(=O)CC=C[C@H](C)COC(=O)[C@@H](C)NC(=O)CC=C[C@@H]1C :: 0.0297
CO[C@@H]1COC(=O)CC=C[C@@H](C)[C@@H]2C=C[C@H](O)[C@@H](COC(=O)CC=C[C@H]1C)O2 :: 0.0177

Hello, I would appreciate it if you could give composite z-score for each entry below.
1. CCCCC#C[C@@H]1C=C[C@H](OC(C)=O)[C@@H](COC(C)=O)O1
2. CCCNC(=O)OC[C@H]1O[C@H](CCON=C(C)C)C=C[C@@H]1Oc1ccc(OC)cc1
3. COC(=O)[C@H](C)NC(=O)CCC1CC(OC(=O)NCc2ccc3c(c2)OCO3)CC2(CCCC(COC(=O)NCC3CCCCC3)O2)O1 (stereo partly drawn)
4. CCOC(=O)[C@H](Cc1ccccc1)NC(=O)CCC1CC(OC(=O)NCc2ccc3c(c2)OCO3)CC2(CCCC(COC(=O)NCCc3ccccc3OC)O2)O1 (stereo partly drawn)
5. COC(=O)[C@H](C)NC(=O)CCC1CC(OC(=O)NCc2ccc3c(c2)OCO3)CC2(CCCC(COC(=O)NCCc3ccccc3OC)O2)O1 (stereo partly drawn)

Result:
1. 0.474
2. -0.0859
3. 0.104
4. -0.024
5. -0.252
